Assign TGI to each entry below.
tested on: HS 578T breast; experiment: NCI tumour cell line growth inhibition, 48 h
Form entry: value (µM) — number only.

Looking for the measured TGI of CCCCCCCCCCCCCCCCCCNC(=S)/N=C\C1=C(O)c2ccccc2C1=O , can you help?
35

Same read-out for O=C(Nc1ccc(Cl)c(Cl)c1)Nc1c(Oc2ccc(Cl)c(Cl)c2)ccc(Cl)c1S(=O)(=O)O ?
8.79

###

system: UO-31 renal; assay: NCI tumour cell line growth inhibition, 48 h; in the data active = GI50 below about 0.43 µM; inactive = the rest
One label from this list, please: y for active, n for inactive

Answer briefly: the call reported for O=C(c1ccccc1)C1OC1c1ccc([N+](=O)[O-])cc1 (centres undefined) in this assay.
n

Same read-out for C#CCSc1cc(Cl)c(C)cc1S(=O)(=O)Nc1nc2ccccc2o1 ?
n

Same read-out for C=C1CCC2C3(C)COC(c4ccccc4)OC3CCC2(C)C1/C=C/C1=CCOC1=O (centres undefined) ?
n

Same read-out for COc1ccc2c(=O)cc(C(Cl)(Cl)Cl)oc2c1 ?
n

Same read-out for CC(=O)c1c(C)[nH]c(-c2nc3ccc(N4CCN(C)CC4)cc3[nH]2)c1-c1ccc(N(C)C)cc1 ?
y

Same read-out for CO/N=C(\C)c1ccc(Nc2cc(-c3ccccc3)nc3ccc(OC)cc23)cc1 ?
n

Same read-out for [N-]=[N+]=NCCCCCC(=O)OC(C(=O)c1ccccc1)c1cccc(OCC(=O)NCCOCCOCCNC(=O)CCCC[C@@H]2SC[C@@H]3NC(=O)N[C@@H]32)c1 (some centres undefined) ?
n

Same read-out for CC(C)=CCC/C(C)=C/CC/C(C)=C/CSc1ccccc1C(=O)O ?
n

Same read-out for O=c1cc(-c2cccc3c2Sc2ccccc2S3)oc(N2CCOCC2)c1 ?
n
